Experiment: Gelation on addition of metal salts (vial inversion)
Format: physicochemical
Details: KCl 200 mM; PA 10 mg/ml (roughly 8 mM), pH 7.5
Procedure: 100 μl of 10 mg/ml solution of peptide-amphiphile 20 was treated with 1M CaCl2 (adjusted to pH 6) drop wise in 1 μl increments. The solutions were shaken after each addition of the CaCl2 solution in order to obtain better diffusion of the divalent metal ions. Gelation was immediate. […] This calcium induced self-assembly may be particularly useful for medical applications where formation of a gel at physiological pH is desired. Trivalent metal cations can also be used for gelation. […]
Non-standard residues stand in square brackets, D forms with d. No end group written: not given here. *: point of attachment. C16 alkyl = N-terminal C16 alkyl tail, CCCCCCCCCCCCCCCC*; pS = N[C@@H](COP(=O)(O)O)C(=O)O

substance	gelation properties, KCl
32 (CCCCGGGEIKVAV-OH; not fully specified (N-terminus); cysteine pairing not given here) [compound 32]	gel
30 ({C16 alkyl}-AAAGGEQS-OH; SMILES CCCCCCCCCCCCCCCCN[C@@H](C)C(=O)N[C@@H](C)C(=O)N[C@@H](C)C(=O)NCC(=O)NCC(=O)N[C@@H](CCC(=O)O)C(=O)N[C@@H](CCC(N)=O)C(=O)N[C@@H](CO)C(=O)O) [compound 30]	Liquid
29 (CCCCGGGSRGD-OH; not fully specified (N-terminus); cysteine pairing not given here) [compound 29]	Liquid
28 (AAAAGGG[pS]KGE-OH; not fully specified (N-terminus)) [compound 28]	Liquid
